Taken from PubChem BioAssay AID1259417.

experimental_details: M. tuberculosis growth inhibition, HTS (AID 1259417);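 further: bacteria grown with compound for 5 days at 37 °C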
stated_conditions: M. tuberculosis growth inhibition; stronger effect = higher value; concentration not given here
In all, about 1,100 compounds went through this assay and about 760 (69%) were called active. So high a share suggests a set chosen from earlier hits. The list shows a part of the results.
Listing: inhibition of selected compounds
Field format: number, assumed %, no unit text.

In the examples that follow, each entry is paired with its recorded inhibition.
{"compound": "Clc1cccc(Nc2nc(NCc3ccco3)c3ccccc3n2)c1", "recorded_measurement": 5.69}
{"compound": "COc1c(N2CCNC(C)C2)c(F)cc2c(=O)c(C(=O)O)cn(C3CC3)c12 (stereo unspecified)", "recorded_measurement": 101}
{"compound": "CCCS(=O)(=O)c1nnnn1-c1cccc(OC)c1", "recorded_measurement": 100}

Input line: # inhibition lookup, item NC1CCN(c2c(F)cc3c(=O)c(C(=O)O)cn(C4CC4)c3c2Cl)C1 (stereo unspecified)
Output line: 100

Input line: Can you look up the measured inhibition of NC1CCN(c2nc3c(cc2F)c(=O)c(C(=O)O)cn3-c2ccc(F)cc2F)C1 (stereo unspecified) for me?
Output line: 98.4

Input line: What does the record list as inhibition for COc1ccccc1-c1c(C)oc2cc(OCC(=O)OCc3ccccc3)ccc2c1=O ?
Output line: 62.9

Input line: Look at this compound and give its reported inhibition. O=C(Nc1cccc(Cl)c1)c1cc(Br)ccc1Cl
Output line: 46.1

Input line: Field request: inhibition | item: COc1c(N2C[C@@H]3CCCN[C@@H]3C2)c(F)cc2c(=O)c(C(=O)O)cn(C3CC3)c12
Output line: 100

Input line: Entry Cc1ccc(Nc2nc(NCc3ccco3)c3ccccc3n2)cc1 : reported inhibition = ?
Output line: 45.4

Input line: What measured inhibition goes with CCOc1ccc(Nc2nc(NCc3ccco3)c3ccccc3n2)cc1 ?
Output line: 78.4

Input line: For the compound shown here, CCCc1cc2c(=O)c(-c3ccc4c(c3)OCCCO4)coc2cc1OCC(=O)OCC , give the reported inhibition.
Output line: 59.1
